The following compounds each carry a recorded AC50 for Cytochrome P450 1A2 (Homo sapiens, UniProt P05177).

Check out these entries, answers already filled in.
STRUCTURE SMILES STRING | RECORDED VALUE
CC(C)(C)NC(=O)COC(=O)c1cncc(Br)c1 | 20 µM (inconclusive)
CCN(CC)S(=O)(=O)c1ccc(NC(=O)COC(=O)c2ccc(Br)o2)cc1 | 0.316 µM (inconclusive)
N[C@@H](Cc1cccnn1)C(=O)O | 3.16 µM (inconclusive)
CCOC(=O)CCCN | 6.31 µM (inconclusive)
COc1cc(N)c(Cl)cc1C(=O)N[C@H]1CCN(CCCOc2ccc(F)cc2)C[C@@H]1OC | 25.1 µM (inconclusive)

Form field: AC50 recorded for CCCCCCCCCCCCCCCC(=O)C(F)(F)F with Cytochrome P450 1A2 (Homo sapiens, UniProt P05177) (enter value)
31.6 µM (inconclusive)

Give recorded AC50 with Cytochrome P450 1A2 (Homo sapiens, UniProt P05177) for the following compound: CN(C)C(=O)c1ccc(-c2nc(NC3CCNCC3)c3ccccc3n2)cc1
Sequence (P05177 whole entry): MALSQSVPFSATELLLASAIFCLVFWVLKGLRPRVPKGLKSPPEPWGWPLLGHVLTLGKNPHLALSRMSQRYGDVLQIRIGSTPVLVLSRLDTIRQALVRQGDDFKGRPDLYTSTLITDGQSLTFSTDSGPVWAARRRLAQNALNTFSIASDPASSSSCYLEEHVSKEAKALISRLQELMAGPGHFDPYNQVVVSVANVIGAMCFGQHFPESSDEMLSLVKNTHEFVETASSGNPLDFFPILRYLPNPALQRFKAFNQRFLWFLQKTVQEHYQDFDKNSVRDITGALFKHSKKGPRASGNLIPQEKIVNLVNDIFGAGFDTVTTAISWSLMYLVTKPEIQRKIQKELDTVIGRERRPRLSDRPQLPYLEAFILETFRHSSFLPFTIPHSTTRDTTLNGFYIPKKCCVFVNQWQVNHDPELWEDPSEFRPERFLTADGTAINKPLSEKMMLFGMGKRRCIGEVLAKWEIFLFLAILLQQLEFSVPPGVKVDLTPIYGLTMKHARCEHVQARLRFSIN
20 µM (inconclusive)

Hello, I am looking for reported AC50 with Cytochrome P450 1A2 (Homo sapiens, UniProt P05177) for Cc1ccc(/C=N/NC(=O)Cn2nccc2C)o1 . Could you help?
15.8 µM (inconclusive)

Cytochrome P450 1A2 (Homo sapiens, UniProt P05177) / AC50 / CC(=O)[C@@]1(O)Cc2c(O)c3c(c(O)c2[C@H](O[C@H]2C[C@H](N)[C@H](O)[C@H](C)O2)C1)C(=O)c1ccccc1C3=O : value?
20 µM (inconclusive)

Param readout = AC50; param system = Cytochrome P450 1A2 (Homo sapiens, UniProt P05177); param query = CN(C)c1ccc([C@@H]2N([C@H](C#N)c3ccc(N(C)C)cc3)CCCN2[C@@H](C#N)c2ccc(N(C)C)cc2)cc1 ; response: value;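 note: PubChem cytochrome P450 panel assay, CYP1A2 panel member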
5.01 µM (inconclusive)

Provenance of the data: ChEMBL document CHEMBL1201862
